target: Type-B CCK receptor (Cavia porcellus, UniProt H0VZC5); construct: cortex and pancreas were removed and rinsed with ice cold saline; from tissue; host or cells: guinea pig cerebral cortex, membranes; test: Radioligand binding, [^125 I]-BH-CCK8, Type-B CCK receptor (cerebral cortical membranes); parameters: species or system guinea pig
Sequence (H0VZC5 1-426): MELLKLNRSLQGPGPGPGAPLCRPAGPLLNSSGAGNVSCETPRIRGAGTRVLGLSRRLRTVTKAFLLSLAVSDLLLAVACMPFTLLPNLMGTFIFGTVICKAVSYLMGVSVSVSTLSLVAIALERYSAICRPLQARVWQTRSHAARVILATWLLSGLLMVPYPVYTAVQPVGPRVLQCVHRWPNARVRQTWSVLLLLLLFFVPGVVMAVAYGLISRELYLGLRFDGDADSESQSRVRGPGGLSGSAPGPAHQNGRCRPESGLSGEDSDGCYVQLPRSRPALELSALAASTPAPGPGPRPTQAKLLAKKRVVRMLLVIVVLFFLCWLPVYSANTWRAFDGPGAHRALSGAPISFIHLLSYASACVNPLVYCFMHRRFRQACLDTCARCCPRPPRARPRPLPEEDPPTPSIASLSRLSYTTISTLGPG
pIC50: −log10 of the molar value.
MEASURED_QUANTITY: pIC50

CCCCCN(CCCCC)C(=O)[C@@H](CCC(=O)O)NC(=O)c1ccc2ccccc2n1; 5.38
O=C(O)CC[C@@H](NC(=O)c1cc2ccccc2[nH]1)C(=O)N(c1ccccc1)c1ccccc1; 5.70
CCCCCN(CCCCC)C(=O)[C@@H](CCC(=O)O)NC(=O)c1c[nH]c2ccccc12; 5.49
CCCCCN(CCCCC)C(=O)[C@@H](CCC(=O)OCc1ccccc1)NC(=O)c1cc2ccccc2[nH]1; 5.46
CCCCCN(CCCCC)C(=O)[C@@H](CCC(=O)O)NC(=O)c1cnc2ccccc2c1; 5.46
O=C(O)CC[C@@H](NC(=O)c1cc2ccccc2[nH]1)C(=O)Nc1ccccc1-c1ccccc1; 5.15
CCCCCN(CCCCC)C(=O)[C@@H](CCC(=O)OC)NC(=O)c1cc2ccccc2[nH]1; 5.44
CCCCCN(CCCCC)C(=O)[C@@H](CC(=O)OCc1ccccc1)NC(=O)c1cc2ccccc2[nH]1; 5.54
CCCCCN(CCCCC)C(=O)[C@@H](CC(=O)O)NC(=O)c1cc2ccccc2[nH]1; 5.59
O=C(O)CC[C@@H](NC(=O)c1cc2ccccc2[nH]1)C(=O)N(Cc1ccccc1)Cc1ccccc1; 5.29
CCCCCN(CCCCC)C(=O)[C@@H](CCC(=O)O)NC(=O)C1CNc2ccccc2N1 (stereo partly drawn); 5.25
CCOC(=O)CN(Cc1ccccc1)C(=O)[C@@H](CCC(=O)OCc1ccccc1)NC(=O)c1cc(O)c2cccc(O)c2n1; 6.21
CCOC(=O)CN(Cc1ccccc1)C(=O)[C@@H](CCC(=O)OCc1ccccc1)NC(=O)c1cnc2ccccc2c1; 5.00
COC(=O)[C@@H](NC(=O)[C@@H](CCC(=O)OCc1ccccc1)NC(=O)c1cc2ccccc2[nH]1)c1ccccc1; 5.20
CCCCCN(CCCCC)C(=O)[C@@H](CCC(N)=O)NC(=O)c1cc2ccccc2[nH]1; 5.18
CCCCCN(CCCCC)C(=O)[C@@H](CCC(=O)O)NC(=O)c1cnc2ccccc2n1; 5.19
CCCCCN(CCCCC)C(=O)[C@@H](CC(=O)O)NC(=O)c1ccc2ccccc2n1; 5.18

###

Target: Type-A CCK receptor (Cavia porcellus)
Construct: cortex and pancreas were removed and rinsed with ice cold saline; from tissue; host or cells: guinea pig pancreas, membranes
Sequence (Q63931 1-430): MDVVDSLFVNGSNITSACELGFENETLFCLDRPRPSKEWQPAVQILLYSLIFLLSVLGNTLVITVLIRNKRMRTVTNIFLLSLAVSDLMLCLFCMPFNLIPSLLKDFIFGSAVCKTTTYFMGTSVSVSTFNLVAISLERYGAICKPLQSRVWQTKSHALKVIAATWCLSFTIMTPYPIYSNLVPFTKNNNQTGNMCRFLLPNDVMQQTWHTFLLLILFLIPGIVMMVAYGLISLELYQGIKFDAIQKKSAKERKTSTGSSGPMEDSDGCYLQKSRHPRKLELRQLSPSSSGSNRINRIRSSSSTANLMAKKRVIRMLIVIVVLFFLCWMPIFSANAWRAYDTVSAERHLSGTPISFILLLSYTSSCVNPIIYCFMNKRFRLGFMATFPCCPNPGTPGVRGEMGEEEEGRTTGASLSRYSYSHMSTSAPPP
Assay: Radioligand binding, [^125 I]-BH-CCK8, Type-A CCK receptor (pancreatic membranes)
Design: species or system guinea pig
pIC50: −log10 of the molar value.
# cutoff 7 applies to pIC50; >= gives 1 (yes), < gives 0 (no)

COC(=O)[C@@H](NC(=O)[C@@H](CCC(=O)OCc1ccccc1)NC(=O)c1cc2ccccc2[nH]1)c1ccccc1; 0 (no)
CCCCCN(CCCCC)C(=O)[C@@H](CC(=O)O)NC(=O)c1ccc2ccccc2n1; 0 (no)
CCCCCN(CCCCC)C(=O)[C@@H](CCC(=O)O)NC(=O)c1cnc2ccccc2c1; 1 (yes)
CCOC(=O)CN(Cc1ccccc1)C(=O)[C@@H](CCC(=O)OCc1ccccc1)NC(=O)c1cnc2ccccc2c1; 0 (no)

Attribution: patent US5128346A
